The origin of these recorded values is BindingDB's records for doi:10.1016/j.bmcl.2010.11.050.

target: Carbonic anhydrase 2 (Bos taurus, UniProt P00921)
Sequence (P00921 whole entry): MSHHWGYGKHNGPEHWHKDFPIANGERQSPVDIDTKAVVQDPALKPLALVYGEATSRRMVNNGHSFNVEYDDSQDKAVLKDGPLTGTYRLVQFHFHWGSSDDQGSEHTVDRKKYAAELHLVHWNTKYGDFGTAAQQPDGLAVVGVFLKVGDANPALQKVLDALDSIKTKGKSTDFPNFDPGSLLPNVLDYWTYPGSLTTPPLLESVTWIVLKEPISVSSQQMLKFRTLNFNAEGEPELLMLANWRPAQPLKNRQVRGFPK
MEASUREMENT_NAME: Ki (nM)

# COMPOUND, MEASURED_RESULT
rows = [
    ("CNc1ccc(S(N)(=O)=O)cc1 [4-Methylamino-benzenesulfonamide]", 288),
    ("NS(=O)(=O)c1ccc(Cl)c(Cl)c1 [3,4-Dichloro-Benzenesulfonamide]", 2.5),
    ("N#Cc1ccc(S(N)(=O)=O)cc1 [4-Cyano-Benzenesulfonamide]", 7.1),
    ("NS(=O)(=O)c1cccc([N+](=O)[O-])c1 [3-Nitro-benzenesulfonamide]", 8.5),
    ("NS(=O)(=O)c1ccc(Cl)c([N+](=O)[O-])c1 [4-Chloro-3-nitro-benzenesulfonamide]", 2),
    ("CC(=O)c1ccc(S(N)(=O)=O)cc1 [4-Acetyl-Benzenesulfonamide]", 17),
    ("NS(=O)(=O)c1ccc(Cl)cc1 [p-Halide-sulfanilamide derivative, 2]", 14),
    ("NS(=O)(=O)c1cccc(Cl)c1 [3-Chloro-Benzenesulfonamide]", 16),
    ("COc1ccc(S(N)(=O)=O)cc1 [4-Methoxy-Benzenesulfonamide]", 102),
    ("Cc1cccc(S(N)(=O)=O)c1 [3-Methylbenzenesulfonamide]", 132),
    ("NS(=O)(=O)c1ccc(Br)cc1 [p-Halide-sulfanilamide derivative, 2a]", 14),
]
